target-system: α1G T-type Ca2+ channels (Homo sapiens)
Construct: expressed in transfected cells; host or cells: HEK293 cells stably expressing α1G and Kir2.1
Sequence (O43497 whole entry): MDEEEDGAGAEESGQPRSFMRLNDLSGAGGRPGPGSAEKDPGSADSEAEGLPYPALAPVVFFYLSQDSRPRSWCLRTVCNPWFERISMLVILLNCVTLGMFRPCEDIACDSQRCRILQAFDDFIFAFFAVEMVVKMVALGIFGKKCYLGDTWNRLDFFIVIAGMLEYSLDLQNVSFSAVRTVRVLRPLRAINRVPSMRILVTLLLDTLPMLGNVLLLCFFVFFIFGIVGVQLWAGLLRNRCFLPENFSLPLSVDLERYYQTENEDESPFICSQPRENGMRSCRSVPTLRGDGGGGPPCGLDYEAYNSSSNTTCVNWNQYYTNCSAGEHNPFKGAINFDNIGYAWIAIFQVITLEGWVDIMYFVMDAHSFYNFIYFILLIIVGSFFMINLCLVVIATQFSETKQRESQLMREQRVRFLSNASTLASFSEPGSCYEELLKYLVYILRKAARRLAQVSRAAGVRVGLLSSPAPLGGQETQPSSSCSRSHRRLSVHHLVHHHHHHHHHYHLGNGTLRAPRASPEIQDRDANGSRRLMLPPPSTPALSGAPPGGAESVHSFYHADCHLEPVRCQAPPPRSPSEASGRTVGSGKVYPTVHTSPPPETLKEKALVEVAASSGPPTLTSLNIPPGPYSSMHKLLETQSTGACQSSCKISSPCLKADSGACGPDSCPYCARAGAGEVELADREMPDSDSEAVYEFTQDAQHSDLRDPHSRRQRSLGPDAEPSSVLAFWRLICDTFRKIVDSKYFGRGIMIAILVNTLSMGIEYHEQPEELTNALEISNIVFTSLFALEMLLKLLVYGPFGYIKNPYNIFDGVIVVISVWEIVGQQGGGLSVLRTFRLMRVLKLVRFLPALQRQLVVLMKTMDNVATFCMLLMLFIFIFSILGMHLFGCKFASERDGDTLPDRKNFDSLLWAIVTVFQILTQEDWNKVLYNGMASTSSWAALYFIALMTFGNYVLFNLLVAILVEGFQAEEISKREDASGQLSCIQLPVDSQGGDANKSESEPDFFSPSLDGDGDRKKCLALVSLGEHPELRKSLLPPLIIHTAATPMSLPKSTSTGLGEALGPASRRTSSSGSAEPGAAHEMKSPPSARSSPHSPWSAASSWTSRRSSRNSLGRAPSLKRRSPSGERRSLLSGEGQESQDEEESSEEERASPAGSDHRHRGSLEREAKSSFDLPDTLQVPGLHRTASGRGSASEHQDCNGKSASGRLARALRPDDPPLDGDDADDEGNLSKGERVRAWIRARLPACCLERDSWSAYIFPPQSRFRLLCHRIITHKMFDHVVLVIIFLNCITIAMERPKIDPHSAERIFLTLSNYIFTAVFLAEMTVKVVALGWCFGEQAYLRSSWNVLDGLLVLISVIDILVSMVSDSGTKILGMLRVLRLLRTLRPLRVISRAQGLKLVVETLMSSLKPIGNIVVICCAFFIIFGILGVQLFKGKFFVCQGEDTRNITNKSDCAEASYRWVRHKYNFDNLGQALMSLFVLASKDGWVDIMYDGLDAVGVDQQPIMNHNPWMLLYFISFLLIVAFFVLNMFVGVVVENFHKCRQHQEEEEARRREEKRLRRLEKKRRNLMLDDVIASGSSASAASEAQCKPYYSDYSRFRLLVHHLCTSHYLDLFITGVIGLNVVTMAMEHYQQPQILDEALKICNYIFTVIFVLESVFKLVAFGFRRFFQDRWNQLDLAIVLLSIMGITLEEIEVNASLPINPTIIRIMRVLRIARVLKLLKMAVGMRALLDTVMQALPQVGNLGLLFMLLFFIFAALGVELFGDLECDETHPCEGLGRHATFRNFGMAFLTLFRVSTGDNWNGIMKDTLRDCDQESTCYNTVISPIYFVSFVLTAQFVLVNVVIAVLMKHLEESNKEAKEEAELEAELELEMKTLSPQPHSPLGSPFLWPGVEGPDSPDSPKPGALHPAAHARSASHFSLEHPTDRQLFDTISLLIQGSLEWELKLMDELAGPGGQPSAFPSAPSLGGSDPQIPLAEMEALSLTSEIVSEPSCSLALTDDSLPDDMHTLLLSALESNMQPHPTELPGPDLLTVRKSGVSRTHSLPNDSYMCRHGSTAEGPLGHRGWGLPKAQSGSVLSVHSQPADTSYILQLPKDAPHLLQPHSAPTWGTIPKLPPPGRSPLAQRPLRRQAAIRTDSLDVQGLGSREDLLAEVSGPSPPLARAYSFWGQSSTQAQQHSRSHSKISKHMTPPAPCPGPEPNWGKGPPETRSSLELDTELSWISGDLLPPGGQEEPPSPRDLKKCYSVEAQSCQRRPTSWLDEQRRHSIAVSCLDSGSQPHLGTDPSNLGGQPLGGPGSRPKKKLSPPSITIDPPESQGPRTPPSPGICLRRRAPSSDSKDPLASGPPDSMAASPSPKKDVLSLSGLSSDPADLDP
assay-text: Screening of activity against T-type calcium channel with FDSS6000 (fluorescence, KCl-induced [Ca2+]i increase)
Type: cell-based
reported-conditions: 100 μM; HEK293 cells expressing α1G and Kir2.1; read-out: Inhibitory effect (%) of T-type calcium channel, Inhibition (%)
readout: inhibition at 100 µM (%)

COc1cccc(CN2C(=O)c3ccc(C(=O)NCCN4CCCCC4)cc3C2=O)c1 [Compound 117] :: 69.8

[P] O=C(NCCCN1CCOCC1)c1ccc2c(c1)C(=O)N(c1ccccc1F)C2=O [Compound 12]
[Q] O=C(NCCN1CCCC1)c1ccc2c(c1)C(=O)N(Cc1ccc(F)cc1)C2=O [Compound 70]
[R] O=C(NCCN1CCOCC1)c1ccc2c(c1)C(=O)N(Cc1ccccc1)C2=O [Compound 53]
List items by inhibition at 100 µM in falling order. Rank the items, then write their labels in that order.
Q, R, P

[a] O=C(NCCCN1CCCC1)c1ccc2c(c1)C(=O)N(Cc1cccc(F)c1)C2=O [Compound 64]
[b] COc1ccc(N2C(=O)c3ccc(C(=O)NCCN4CCCCC4)cc3C2=O)cc1 [Compound 48]
Which shows the larger inhibition at 100 µM value: a or b ? Choose, then provide that item's label.
a
(a: 65.9%, b: 31.4%)
